# aptazyme ON/OFF ratio per entry
B1: Pistol ribozyme (parent)
chain: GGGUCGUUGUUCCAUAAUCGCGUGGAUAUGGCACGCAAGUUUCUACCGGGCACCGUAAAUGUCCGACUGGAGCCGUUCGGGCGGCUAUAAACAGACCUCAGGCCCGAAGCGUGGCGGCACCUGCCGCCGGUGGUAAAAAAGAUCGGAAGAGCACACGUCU

- Variants of: B1
- ASSAY INFO: aptazyme ON/OFF ratio, guanine; higher = stronger switching; co-transcriptional cleavage with and without guanine
ASSAY READOUT: aptazyme ON/OFF ratio

# MUTATIONS, ASSAY READOUT, READOUT NUMBER
records = [
    ("U8C G9C C12U C13A", "aptazyme ON/OFF ratio", 1.05),
    ("U7A U8G U10C U11C C12A C13U", "aptazyme ON/OFF ratio", 1.49),
    ("U7C U8G G9A U10G U11A C12G C13U", "aptazyme ON/OFF ratio", 1.42),
    ("U7C U8G G9U U10A U11C C12G C13A", "aptazyme ON/OFF ratio", 1.16),
    ("U7A U8C U10G U11A", "aptazyme ON/OFF ratio", 1.14),
    ("G9A U10C C12A", "aptazyme ON/OFF ratio", 1.38),
    ("U7C U8C U10G U11G C13G", "aptazyme ON/OFF ratio", 1.11),
    ("U7C U8A G9C U10A U11A C12U C13G", "aptazyme ON/OFF ratio", 1.1),
    ("U7A G9U U11A C13U", "aptazyme ON/OFF ratio", 1.1),
    ("U7A G9A U10A U11G C12A C13G", "aptazyme ON/OFF ratio", 1.22),
    ("U8G U11G", "aptazyme ON/OFF ratio", 1.25),
    ("U8G G9C U10G C12A", "aptazyme ON/OFF ratio", 1.19),
    ("U7A U8G U10A U11C C13U", "aptazyme ON/OFF ratio", 1.05),
    ("U7A G9A U10C U11G C13U", "aptazyme ON/OFF ratio", 1.25),
    ("U7C U8G G9U U11G C12U C13G", "aptazyme ON/OFF ratio", 1.23),
    ("U8C G9A U10A U11G C12G", "aptazyme ON/OFF ratio", 1.12),
    ("U8G G9A U10C C13A", "aptazyme ON/OFF ratio", 1.04),
    ("U7A U8C G9A U10A U11A C12U C13A", "aptazyme ON/OFF ratio", 1.13),
    ("U7G U8C U10G C13U", "aptazyme ON/OFF ratio", 1.24),
    ("U7G U10A U11G C12U C13G", "aptazyme ON/OFF ratio", 1.22),
    ("U7G U8C U11A C13U", "aptazyme ON/OFF ratio", 1.32),
    ("U7C U8A U10G U11A C12G C13G", "aptazyme ON/OFF ratio", 1.18),
    ("U7C U11C C13U", "aptazyme ON/OFF ratio", 1.13),
    ("U7A G9A U10A U11G C12U", "aptazyme ON/OFF ratio", 1.17),
    ("U8A U10C U11A C12A C13G", "aptazyme ON/OFF ratio", 1.1),
    ("U8A G9U U10C C12G C13G", "aptazyme ON/OFF ratio", 1.18),
    ("U7G U8A G9A U10C C12G C13U", "aptazyme ON/OFF ratio", 1.28),
    ("U7A U8C U10G U11C C12U C13A", "aptazyme ON/OFF ratio", 1.36),
    ("U7C U8G G9C U10C U11A C13U", "aptazyme ON/OFF ratio", 1.21),
    ("U7C U8C G9A U10C U11G C12A", "aptazyme ON/OFF ratio", 1.26),
    ("U7G U8G G9U U10G U11A C13A", "aptazyme ON/OFF ratio", 1.13),
    ("U8G G9C U10G C12G", "aptazyme ON/OFF ratio", 1.19),
    ("U7C U8A G9U U10C U11A C13U", "aptazyme ON/OFF ratio", 1.17),
    ("U7A G9C U11A C12G C13U", "aptazyme ON/OFF ratio", 1.08),
    ("U7G U8A G9C U10A U11A C13U", "aptazyme ON/OFF ratio", 1.04),
    ("U7A U8G G9U C12U C13G", "aptazyme ON/OFF ratio", 1.17),
    ("U7A G9C U10A U11A C12A", "aptazyme ON/OFF ratio", 1.06),
    ("U7A U8G G9C U10C U11A C12A C13G", "aptazyme ON/OFF ratio", 1.1),
    ("U7G G9C U10A U11G C13G", "aptazyme ON/OFF ratio", 1.14),
    ("U7G G9U U10A U11A C13G", "aptazyme ON/OFF ratio", 1.18),
    ("U7G U8G U10G U11A C12U", "aptazyme ON/OFF ratio", 1.36),
    ("U7G U8G G9C U10A C12G C13G", "aptazyme ON/OFF ratio", 1.04),
    ("U8C G9C U11C C12A C13A", "aptazyme ON/OFF ratio", 1.03),
    ("U8G G9U U10A U11A C12U C13U", "aptazyme ON/OFF ratio", 1.15),
    ("U7G U8A G9A U11C C13G", "aptazyme ON/OFF ratio", 1.06),
    ("U8C G9U U10G", "aptazyme ON/OFF ratio", 2.84),
    ("U10A C12G C13G", "aptazyme ON/OFF ratio", 1.17),
    ("U7A G9U U10A C12U C13A", "aptazyme ON/OFF ratio", 1.29),
    ("U11G C13A", "aptazyme ON/OFF ratio", 1.05),
    ("U8G G9U U10C U11G C12U C13U", "aptazyme ON/OFF ratio", 1.24),
    ("U7C G9C U10C U11C C12G", "aptazyme ON/OFF ratio", 1.03),
    ("U7G U8A G9A U10A C12G C13G", "aptazyme ON/OFF ratio", 1.09),
    ("U7G U10A U11C C12U C13G", "aptazyme ON/OFF ratio", 1.05),
    ("U8G G9A U10A U11A C13G", "aptazyme ON/OFF ratio", 1.01),
    ("U7A U8C G9C U10C U11C C13A", "aptazyme ON/OFF ratio", 1.03),
    ("U7G U8C G9A U11C C12A C13U", "aptazyme ON/OFF ratio", 1.5),
    ("U7A U8G G9U U10G U11A C13A", "aptazyme ON/OFF ratio", 1.17),
    ("U7C U8C G9U U10G U11G C12A C13A", "aptazyme ON/OFF ratio", 1.01),
    ("U7C U8C G9C U10A U11A C12G C13U", "aptazyme ON/OFF ratio", 1.09),
    ("U7C U8C G9A U11C C12A", "aptazyme ON/OFF ratio", 1.51),
    ("U8G G9A U10A U11A C12G C13A", "aptazyme ON/OFF ratio", 1.22),
    ("U7C U8G G9C U11G C12A", "aptazyme ON/OFF ratio", 1.12),
    ("U7A U8C U10A U11C C12U", "aptazyme ON/OFF ratio", 1.03),
    ("U7C U8C G9C U10A U11A C12A", "aptazyme ON/OFF ratio", 1.21),
    ("U7C U8C C12A C13U", "aptazyme ON/OFF ratio", 1.34),
    ("U8C G9C U11A C12U C13U", "aptazyme ON/OFF ratio", 1.07),
    ("U7G U8C G9U U10A U11C C12U", "aptazyme ON/OFF ratio", 1.72),
    ("U7C U8C G9A U10A C12A C13U", "aptazyme ON/OFF ratio", 1.21),
    ("U7G U8A G9A U11G C12U C13U", "aptazyme ON/OFF ratio", 1.45),
    ("U7A G9C U10C U11G C12G", "aptazyme ON/OFF ratio", 1.1),
    ("U7C G9A U10G U11G C13U", "aptazyme ON/OFF ratio", 1.17),
    ("U8C U10G U11A C12G", "aptazyme ON/OFF ratio", 1.23),
    ("U8G G9C C12U C13A", "aptazyme ON/OFF ratio", 1.05),
    ("U7A U8G G9C U10A C12A C13A", "aptazyme ON/OFF ratio", 1.25),
    ("U7C U8A G9A C12U", "aptazyme ON/OFF ratio", 1.3),
    ("U7A U8A G9C C12A C13A", "aptazyme ON/OFF ratio", 1.17),
    ("U7G G9C U10A U11A C13U", "aptazyme ON/OFF ratio", 1.45),
]

Numbers sourced from the RNAGym collection of RNA variant scans (doi:10.1021/acssynbio.7b00057).
